meta.source: ChEMBL document CHEMBL1153264

- Assay System: Receptor-type tyrosine-protein kinase FLT3 (Homo sapiens) (UniProt P36888)
- Sequence (P36888 whole entry): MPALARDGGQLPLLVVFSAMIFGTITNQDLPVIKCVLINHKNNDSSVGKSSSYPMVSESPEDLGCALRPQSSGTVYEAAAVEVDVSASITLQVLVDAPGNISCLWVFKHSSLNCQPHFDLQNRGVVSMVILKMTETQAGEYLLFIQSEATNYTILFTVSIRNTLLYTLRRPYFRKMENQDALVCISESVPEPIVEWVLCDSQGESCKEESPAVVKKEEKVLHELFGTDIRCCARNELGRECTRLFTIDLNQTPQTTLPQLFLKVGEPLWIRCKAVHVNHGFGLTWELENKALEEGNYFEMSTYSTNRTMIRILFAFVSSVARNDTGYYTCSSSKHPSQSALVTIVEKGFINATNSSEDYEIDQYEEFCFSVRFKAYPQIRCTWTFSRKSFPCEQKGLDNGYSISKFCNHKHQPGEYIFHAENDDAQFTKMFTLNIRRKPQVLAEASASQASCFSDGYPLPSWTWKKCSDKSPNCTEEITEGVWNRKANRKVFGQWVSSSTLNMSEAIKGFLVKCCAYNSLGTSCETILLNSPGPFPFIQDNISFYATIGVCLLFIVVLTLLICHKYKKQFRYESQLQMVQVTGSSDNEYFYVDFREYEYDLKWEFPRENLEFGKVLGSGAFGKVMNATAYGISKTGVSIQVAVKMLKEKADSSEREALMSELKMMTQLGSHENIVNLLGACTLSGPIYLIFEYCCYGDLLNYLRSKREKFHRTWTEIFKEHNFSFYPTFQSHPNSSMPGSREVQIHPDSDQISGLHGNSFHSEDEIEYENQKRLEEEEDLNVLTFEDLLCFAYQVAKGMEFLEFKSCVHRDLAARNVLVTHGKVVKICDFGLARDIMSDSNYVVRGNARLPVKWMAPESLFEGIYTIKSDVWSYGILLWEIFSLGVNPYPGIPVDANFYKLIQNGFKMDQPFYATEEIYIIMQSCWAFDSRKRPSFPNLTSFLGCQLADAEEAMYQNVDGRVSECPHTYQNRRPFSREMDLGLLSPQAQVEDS
- Measurement Description: Inhibition of Flt3 at 10 uM
Hi there, I'd appreciate the recorded inhibition for every entry that follows.

Example results:
* FC(F)(F)c1cccc(-n2cc(-c3ccccc3NCc3ccc4c(c3)OCO4)nn2)c1 | < 30%
* FC(F)(F)Oc1ccc(-n2cc(-c3ccccc3NCc3ccncc3)nn2)cc1 | < 30%
* FC(F)(F)c1ccc(-n2cc(-c3ccccc3NCc3ccncc3)nn2)cc1Cl | < 30%

Record inhibition for all entries; do not skip any.
1. CC(C)c1cccc(-n2cc(-c3ccccc3NCc3ccncc3)nn2)c1
2. Cc1cc(-n2cc(-c3ccccc3NCc3ccncc3)nn2)ccc1C(F)(F)F

1: < 30%; 2: < 30%

====

- Assay System: UniProt P35968
- Sequence (P35968 whole entry): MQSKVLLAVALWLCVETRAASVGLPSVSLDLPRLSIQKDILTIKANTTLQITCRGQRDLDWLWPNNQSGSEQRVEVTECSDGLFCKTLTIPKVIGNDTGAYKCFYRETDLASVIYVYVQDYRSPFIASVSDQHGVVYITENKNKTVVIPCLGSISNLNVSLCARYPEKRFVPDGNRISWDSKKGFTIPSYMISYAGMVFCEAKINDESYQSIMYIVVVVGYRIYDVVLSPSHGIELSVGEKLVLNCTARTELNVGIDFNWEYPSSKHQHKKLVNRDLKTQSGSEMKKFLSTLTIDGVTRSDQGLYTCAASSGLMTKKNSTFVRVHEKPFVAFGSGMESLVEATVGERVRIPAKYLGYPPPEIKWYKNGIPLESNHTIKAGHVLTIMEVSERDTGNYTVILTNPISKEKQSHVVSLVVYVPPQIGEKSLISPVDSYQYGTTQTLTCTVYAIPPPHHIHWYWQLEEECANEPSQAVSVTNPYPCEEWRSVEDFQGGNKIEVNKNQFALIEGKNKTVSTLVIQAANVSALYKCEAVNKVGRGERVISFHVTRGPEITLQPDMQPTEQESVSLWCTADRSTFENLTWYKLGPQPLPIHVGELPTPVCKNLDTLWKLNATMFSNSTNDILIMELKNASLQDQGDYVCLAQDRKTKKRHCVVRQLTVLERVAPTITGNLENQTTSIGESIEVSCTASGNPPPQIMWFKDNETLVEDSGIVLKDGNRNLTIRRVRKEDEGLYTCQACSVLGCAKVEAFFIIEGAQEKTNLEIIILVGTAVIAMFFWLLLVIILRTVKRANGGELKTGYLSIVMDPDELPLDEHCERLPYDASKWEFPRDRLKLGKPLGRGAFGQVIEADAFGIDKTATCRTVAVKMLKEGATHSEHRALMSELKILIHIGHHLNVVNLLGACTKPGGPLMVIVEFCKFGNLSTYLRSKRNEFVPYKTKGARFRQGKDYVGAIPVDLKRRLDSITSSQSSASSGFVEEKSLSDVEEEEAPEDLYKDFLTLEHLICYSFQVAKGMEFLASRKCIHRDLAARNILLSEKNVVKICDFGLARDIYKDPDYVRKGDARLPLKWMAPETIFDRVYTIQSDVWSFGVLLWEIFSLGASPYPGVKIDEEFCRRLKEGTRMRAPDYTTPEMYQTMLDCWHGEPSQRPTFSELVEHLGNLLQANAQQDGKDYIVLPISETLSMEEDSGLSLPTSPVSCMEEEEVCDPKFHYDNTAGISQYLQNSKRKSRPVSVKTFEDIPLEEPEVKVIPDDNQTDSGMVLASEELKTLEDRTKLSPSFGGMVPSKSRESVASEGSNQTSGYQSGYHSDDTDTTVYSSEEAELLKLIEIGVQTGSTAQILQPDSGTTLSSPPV
- Measurement Description: Binding affinity to VEGFR2 at IC50 in presence of ATP
Property: Ki (nM)
One number for each entry, in nM.

Sample answers from the record:
* Clc1cccc(-n2cc(-c3ccccc3NCc3ccncc3)nn2)c1 | 120
* FC(F)(F)c1cccc(-n2cc(-c3ccccc3NCc3ccncc3)nn2)c1 | 90

Now for another entry.
Query CC(C)c1cccc(-n2cc(-c3ccccc3NCc3ccncc3)nn2)c1 on UniProt P35968; Ki returned: 160

====

- Assay System: Receptor tyrosine-protein kinase erbB-2 (Homo sapiens) (UniProt P04626)
- Sequence (P04626 whole entry): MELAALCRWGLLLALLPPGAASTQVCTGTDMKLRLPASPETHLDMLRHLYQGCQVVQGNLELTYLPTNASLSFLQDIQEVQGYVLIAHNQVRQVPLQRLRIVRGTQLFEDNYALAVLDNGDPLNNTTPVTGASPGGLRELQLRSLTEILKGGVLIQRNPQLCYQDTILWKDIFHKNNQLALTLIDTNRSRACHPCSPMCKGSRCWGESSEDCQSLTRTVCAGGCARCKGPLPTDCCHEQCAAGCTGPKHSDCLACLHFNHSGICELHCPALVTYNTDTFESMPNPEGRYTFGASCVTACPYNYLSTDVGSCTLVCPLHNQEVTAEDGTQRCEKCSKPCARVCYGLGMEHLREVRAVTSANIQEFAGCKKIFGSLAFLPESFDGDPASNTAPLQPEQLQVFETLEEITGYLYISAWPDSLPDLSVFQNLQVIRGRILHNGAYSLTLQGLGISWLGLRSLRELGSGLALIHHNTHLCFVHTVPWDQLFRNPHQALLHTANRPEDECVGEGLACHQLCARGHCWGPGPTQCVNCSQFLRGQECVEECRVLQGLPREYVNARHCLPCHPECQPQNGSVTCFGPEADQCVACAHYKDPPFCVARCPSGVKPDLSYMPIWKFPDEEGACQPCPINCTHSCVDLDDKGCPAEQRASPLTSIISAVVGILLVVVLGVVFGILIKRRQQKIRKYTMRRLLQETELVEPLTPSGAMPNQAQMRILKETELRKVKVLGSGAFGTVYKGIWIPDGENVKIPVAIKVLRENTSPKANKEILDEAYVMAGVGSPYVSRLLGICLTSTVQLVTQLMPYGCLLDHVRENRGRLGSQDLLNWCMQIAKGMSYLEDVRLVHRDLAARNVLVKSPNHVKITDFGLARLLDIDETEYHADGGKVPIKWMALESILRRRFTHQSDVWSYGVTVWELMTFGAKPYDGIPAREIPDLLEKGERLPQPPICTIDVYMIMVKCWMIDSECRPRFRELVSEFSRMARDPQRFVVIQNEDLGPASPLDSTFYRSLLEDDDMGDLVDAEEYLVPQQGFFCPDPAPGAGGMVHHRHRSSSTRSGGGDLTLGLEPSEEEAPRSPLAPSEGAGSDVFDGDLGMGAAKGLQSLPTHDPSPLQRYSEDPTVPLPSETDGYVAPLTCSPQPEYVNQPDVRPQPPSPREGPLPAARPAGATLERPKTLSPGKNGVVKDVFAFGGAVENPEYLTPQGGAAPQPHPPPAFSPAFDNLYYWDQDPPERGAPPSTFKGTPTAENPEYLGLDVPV
- Measurement Description: Inhibition of ErbB2 at 10 uM
For each of the compounds below, state its inhibition.

// known answers, use as guide
- FC(F)(F)Oc1ccc(-n2cc(-c3ccccc3NCc3ccncc3)nn2)cc1: < 30%
- FC(F)(F)Oc1cccc(-n2cc(-c3ccccc3NCc3ccncc3)nn2)c1: < 30%
- FC(F)(F)c1cccc(-n2cc(-c3ccccc3NCc3ccncc3)nn2)c1: < 30%
- FC(F)(F)c1ccc(-n2cc(-c3ccccc3NCc3ccncc3)nn2)cc1: < 30%
- Clc1cccc(-n2cc(-c3ccccc3NCc3ccc4c(c3)OCO4)nn2)c1: < 30%

// for each compound in input: emit inhibition
1. FC(F)(F)c1cccc(-n2cc(-c3ccccc3NCc3ccnc4ccccc34)nn2)c1
2. c1ccc(-c2cn(-c3ccc4ccccc4n3)nn2)c(NCc2ccncc2)c1
3. Clc1ccc(-n2cc(-c3ccccc3NCc3ccncc3)nn2)cc1Cl
4. FC(F)(F)c1cccc(-n2cc(-c3ccccc3NCc3ccccn3)nn2)c1
5. Cc1ccc(-n2cc(-c3ccccc3NCc3ccncc3)nn2)cc1C(F)(F)F

< 30%
< 30%
< 30%
< 30%
< 30%

For each entry beneath this line, provide reported inhibition.
1. Clc1cccc(-n2cc(-c3ccccc3NCc3cccnc3)nn2)c1
2. CC(C)(C)c1ccc(-n2cc(-c3ccccc3NCc3ccncc3)nn2)cc1
3. CC(C)c1cccc(-n2cc(-c3ccccc3NCc3ccncc3)nn2)c1
4. Clc1cccc(-n2cc(-c3ccccc3NCc3ccnc4ccccc34)nn2)c1
5. Cc1cc(-n2cc(-c3ccccc3NCc3ccncc3)nn2)ccc1C(F)(F)F
6. Clc1cccc(-n2cc(-c3ccccc3NCc3c[nH]cn3)nn2)c1
7. Clc1cccc(-n2cc(-c3ccccc3NCc3ccccn3)nn2)c1
8. FC(F)(F)c1cccc(-n2cc(-c3ccccc3NCc3cccnc3)nn2)c1

< 30%
< 30%
< 30%
< 30%
< 30%
< 30%
< 30%
< 30%

Can you give me inhibition for all of these, one by one?
1. Clc1cccc(-n2cc(-c3ccccc3NCc3ccncc3)nn2)c1
2. c1ccc(-c2cn(-c3ccc4[nH]ncc4c3)nn2)c(NCc2ccncc2)c1
3. FC(F)(F)c1cc(-n2cc(-c3ccccc3NCc3ccncc3)nn2)ccc1Cl
4. Clc1ccc(-n2cc(-c3ccccc3NCc3ccncc3)nn2)cc1
5. FC(F)(F)c1ccc(-n2cc(-c3ccccc3NCc3ccncc3)nn2)cc1Cl
6. CC(C)(C)c1cccc(-n2cc(-c3ccccc3NCc3ccncc3)nn2)c1
7. FC(F)(F)c1cccc(-n2cc(-c3ccccc3NCc3ccc4c(c3)OCO4)nn2)c1

1. < 30%
2. < 30%
3. < 30%
4. < 30%
5. < 30%
6. < 30%
7. < 30%

response.value for Fc1ccc(CNc2ccccc2-c2cn(-c3cccc(Cl)c3)nn2)cc1F (field: inhibition) = < 30%
